B1: STEAP1 (parent)
chain: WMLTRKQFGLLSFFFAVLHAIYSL

# Variants of: B1
# Method summary: protein stability index of a GFP-peptide fusion (GPS, HEK-293T) (PSI 1-6); higher = more stable;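 also: lentivirally expressed fusions sorted by FACS into six bins by GFP to DsRed ratio, PSI derived from sequencing read proportions per bin multiplied by bin number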
# Experimental setup: c terminus: a fixed tail appended
Hi there, I'd appreciate the recorded protein stability index for every entry that follows.
Numbers only.

Report protein stability index for every entry below.
1. V17G
2. Y22F
3. L24G
4. A16H
5. Q7W

[out]
1. 2.58
2. 1.56
3. 2.74
4. 1.76
5. 1.86

Each recorded value in this set is attributed to the supplement of paper PMC10567573.
